# Species on record: Rattus norvegicus
# ASSAY_PROTOCOL: Open TG-GATES - Regimen: Single
# Type: toxicity, organism-based, Sprague-Dawley
# Set-up: regimen Single, gender Male, age 6 weeks
# TEST_PARAMETERS: in vivo, po, 0 mg/kg, 3 h, tissue Blood, route gavage, dose level Control
Below, each of the compounds is paired with its reported RBC value.
Supply the numeric figure in x10_4/ul, leaving out any unit text.

[
  {
    "COMPOUND": "NC(N)=Nc1nc(CSCCC(N)=NS(N)(=O)=O)cs1 [FAMOTIDINE]",
    "UNIT_INFO": "x10_4/ul",
    "RBC": 593.6
  },
  {
    "COMPOUND": "O=C(CCCN1CCC(O)(c2ccc(Cl)cc2)CC1)c1ccc(F)cc1 [HALOPERIDOL]",
    "UNIT_INFO": "x10_4/ul",
    "RBC": 616.8
  },
  {
    "COMPOUND": "NNC(=O)c1ccncc1 [ISONIAZID]",
    "UNIT_INFO": "x10_4/ul",
    "RBC": 627.2
  },
  {
    "COMPOUND": "CCOC(=O)CCC(=O)O[C@H]1[C@H](O[C@@H]2[C@@H](C)[C@H](O[C@H]3C[C@@](C)(OC)[C@@H](O)[C@H](C)O3)[C@@H](C)C(=O)O[C@H](CC)[C@@](C)(O)[C@H](O)[C@@H](C)C(=O)[C@H](C)C[C@@]2(C)O)O[C@H](C)C[C@@H]1N(C)C [ERYTHROMYCIN ETHYLSUCCINATE]",
    "UNIT_INFO": "x10_4/ul",
    "RBC": 635.6
  },
  {
    "COMPOUND": "COc1cc2c(c(OC)c1OC)-c1ccc(OC)c(=O)cc1[C@@H](NC(C)=O)CC2 [COLCHICINE]",
    "UNIT_INFO": "x10_4/ul",
    "RBC": 608.4
  },
  {
    "COMPOUND": "CN(C)CCN(Cc1cccs1)c1ccccn1",
    "UNIT_INFO": "x10_4/ul",
    "RBC": 629.4
  }
]

Request: Entry CCCNC(=O)NS(=O)(=O)c1ccc(Cl)cc1 [CHLORPROPAMIDE] needs its RBC filled in; supply it.
Response: 629.8
